# ASSAY: Cmax in Wistar BRL rat brain at 24 mg/kg, po by LC-MS/MS analysis
# Assay type: ADME, organism-based
# Parameters: dose 24 mg/kg, route oral

ITEM_SMILES | Cmax
NC(=O)CN1CCN(Cc2nc(-c3cn(CC4CCOCC4)c4c(Cl)cccc34)no2)CC1 | 148 ng/g

---

# ASSAY: Solubility of the compound at pH 7.4
# Format: physicochemical
# ASSAY_CONDITIONS: buffer
ASSAY_READOUT: solubility (µg/mL)

ITEM_SMILES | OBSERVED_VALUE
NC(=O)CN1CCN(Cc2nc(-c3cn(CC4CCOCC4)c4c(Cl)cccc34)no2)CC1 | 89
COc1cccc2c(-c3nsc(CN4CCN(CC(N)=O)CC4)n3)cn(CC3CCOCC3)c12 | 5
O=C(NCCO)[C@H]1CCCN(Cc2nc(-c3cn(CC4CCS(=O)(=O)CC4)c4c(Cl)cccc34)ns2)C1 | 45

---

# ASSAY: Oral bioavailability in rat
# Assay type: ADME, organism-based
# ASSAY_CONDITIONS: in vivo

ITEM_SMILES | UNIT | bioavailability
Cc1c(C(=O)c2cccc3ccccc23)c2cccc3c2n1[C@H](CN1CCOCC1)CO3 | % | 0
COc1cccc2c(-c3nsc(CN4CCN(CC(N)=O)CC4)n3)cn(CC3CCOCC3)c12 | % | 40
NC(=O)CN1CCN(Cc2nc(-c3cn(CC4CCOCC4)c4c(Cl)cccc34)no2)CC1 | % | 45
O=C(NCCO)C1CCN(Cc2nc(-c3cn(CC4CCOCC4)c4c(Cl)cccc34)no2)CC1 | % | 8
O=C(NCCO)[C@H]1CCCN(Cc2nc(-c3cn(CC4CCS(=O)(=O)CC4)c4c(Cl)cccc34)ns2)C1 | % | 1

---

# TARGET_OF_ASSAY: Voltage-gated inwardly rectifying potassium channel KCNH2 (Homo sapiens)
# Sequence (Q12809 whole entry): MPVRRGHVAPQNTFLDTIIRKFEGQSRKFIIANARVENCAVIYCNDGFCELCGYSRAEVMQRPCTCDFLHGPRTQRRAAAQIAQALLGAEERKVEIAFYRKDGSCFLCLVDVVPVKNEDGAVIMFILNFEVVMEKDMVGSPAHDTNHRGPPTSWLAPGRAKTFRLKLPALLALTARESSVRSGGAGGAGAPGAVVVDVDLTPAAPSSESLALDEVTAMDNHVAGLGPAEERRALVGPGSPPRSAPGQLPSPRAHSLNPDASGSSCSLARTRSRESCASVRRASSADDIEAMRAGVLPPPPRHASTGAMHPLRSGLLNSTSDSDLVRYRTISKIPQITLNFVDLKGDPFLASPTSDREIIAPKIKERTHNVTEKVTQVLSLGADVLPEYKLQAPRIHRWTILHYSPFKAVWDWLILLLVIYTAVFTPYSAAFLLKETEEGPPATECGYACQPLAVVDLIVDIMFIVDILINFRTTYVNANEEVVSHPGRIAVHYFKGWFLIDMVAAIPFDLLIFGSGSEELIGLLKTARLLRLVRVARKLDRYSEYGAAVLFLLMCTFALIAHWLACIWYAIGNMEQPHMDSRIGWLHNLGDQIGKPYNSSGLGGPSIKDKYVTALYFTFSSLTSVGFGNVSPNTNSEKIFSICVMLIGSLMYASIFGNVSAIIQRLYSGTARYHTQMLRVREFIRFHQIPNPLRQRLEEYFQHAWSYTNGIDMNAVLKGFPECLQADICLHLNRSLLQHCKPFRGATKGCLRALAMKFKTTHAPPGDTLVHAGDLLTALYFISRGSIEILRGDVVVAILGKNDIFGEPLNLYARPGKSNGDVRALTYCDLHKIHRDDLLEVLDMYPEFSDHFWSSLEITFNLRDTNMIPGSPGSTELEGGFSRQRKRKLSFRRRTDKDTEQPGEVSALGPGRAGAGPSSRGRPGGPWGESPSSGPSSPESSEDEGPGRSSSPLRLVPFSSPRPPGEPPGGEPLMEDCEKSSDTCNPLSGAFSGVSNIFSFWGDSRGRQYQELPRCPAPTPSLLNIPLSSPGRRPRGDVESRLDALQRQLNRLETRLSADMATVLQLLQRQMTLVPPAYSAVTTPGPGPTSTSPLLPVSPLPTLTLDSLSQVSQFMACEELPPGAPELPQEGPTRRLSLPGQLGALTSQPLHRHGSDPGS
ASSAY_READOUT: Ki

ITEM_SMILES | TARGET_OF_ASSAY | OBSERVED_VALUE
NC(=O)CN1CCN(Cc2nc(-c3cn(CC4CCOCC4)c4c(Cl)cccc34)no2)CC1 | Voltage-gated inwardly rectifying potassium channel KCNH2 (Homo sapiens) | 20 µM

---

# ASSAY: Oral bioavailability in rat at 10 mg/kg
# Assay type: ADME, organism-based
# ASSAY_CONDITIONS: in vivo

ITEM_SMILES | UNIT | bioavailability
NC(=O)CN1CCN(Cc2nc(-c3cn(CC4CCOCC4)c4c(Cl)cccc34)no2)CC1 | % | 45

---

# ASSAY: Ratio of Cmax in mouse brain to Cmax in mouse plasma at 3 umol/kg, iv
# Type: ADME

ITEM_SMILES | Kp
NC(=O)CN1CCN(Cc2nc(-c3cn(CC4CCOCC4)c4c(Cl)cccc34)no2)CC1 | 0.16

---

# ASSAY: Half life in rat at 2 mg/kg, iv
# Type: ADME, organism-based
# Set-up: dose 2 mg/kg, route intravenous
# ASSAY_CONDITIONS: in vivo

ITEM_SMILES | half-life [h]
NC(=O)CN1CCN(Cc2nc(-c3cn(CC4CCOCC4)c4c(Cl)cccc34)no2)CC1 | 3.8

---

# ASSAY: Volume of distribution at steady state in rat at 2 mg/kg, iv
# Assay type: ADME, organism-based
# Parameters: dose 2 mg/kg, route intravenous
# ASSAY_CONDITIONS: in vivo, read-out: Vdss

ITEM_SMILES | UNIT | Vd
NC(=O)CN1CCN(Cc2nc(-c3cn(CC4CCOCC4)c4c(Cl)cccc34)no2)CC1 | L/kg | 2.6
